All figures here come from patent US20200277374A1.

Each item that follows carries a reported Percent Siglec-7 Surface Expression, Monocytes.
- test system: human Siglec-7 expressed on human cells (primary monocytes, dendritic cells, macrophages, NK cells, … (human, UniProt Q9Y286 19-467))
- Sequence (Q9Y286 19-467): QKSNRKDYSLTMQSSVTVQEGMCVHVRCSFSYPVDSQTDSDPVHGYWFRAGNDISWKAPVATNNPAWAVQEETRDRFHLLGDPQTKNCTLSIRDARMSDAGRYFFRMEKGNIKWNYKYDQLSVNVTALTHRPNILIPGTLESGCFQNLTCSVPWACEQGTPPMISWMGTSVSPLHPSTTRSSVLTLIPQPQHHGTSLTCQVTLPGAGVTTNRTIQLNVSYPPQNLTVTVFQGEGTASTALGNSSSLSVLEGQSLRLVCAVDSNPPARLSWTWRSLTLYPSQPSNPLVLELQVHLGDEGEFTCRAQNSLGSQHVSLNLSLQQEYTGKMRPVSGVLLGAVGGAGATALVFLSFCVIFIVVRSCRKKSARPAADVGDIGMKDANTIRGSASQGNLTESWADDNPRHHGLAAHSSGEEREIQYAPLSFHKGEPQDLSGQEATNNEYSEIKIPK
- test name: cell-based or functional assay
Answer format: numeric, % implied, no suffix.

Field: example entries. Status: answers known.
Asked: Supply recorded Percent Siglec-7 Surface Expression, Monocytes for anti-Siglec-7 antibody 1E8 (antibody, V domains shown) VH: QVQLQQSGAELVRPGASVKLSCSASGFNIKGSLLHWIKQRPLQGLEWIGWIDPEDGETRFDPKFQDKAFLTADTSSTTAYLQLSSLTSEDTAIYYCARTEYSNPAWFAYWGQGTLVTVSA VL: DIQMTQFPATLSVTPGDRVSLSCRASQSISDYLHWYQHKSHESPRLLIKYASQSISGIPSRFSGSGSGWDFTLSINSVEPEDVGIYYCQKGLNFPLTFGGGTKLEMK here.
Given back: 36.7

Asked: Supply recorded Percent Siglec-7 Surface Expression, Monocytes for anti-Siglec-7 antibody 2G1 (antibody, V domains shown, Variable domains assembled from FR and CDR entries; the printed VL FR1 looks shortened at its N-terminus; also called 2G11 (misprint in text)) VH: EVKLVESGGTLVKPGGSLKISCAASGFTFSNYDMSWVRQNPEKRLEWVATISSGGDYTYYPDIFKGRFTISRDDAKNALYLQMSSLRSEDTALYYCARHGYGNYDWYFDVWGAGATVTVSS VL: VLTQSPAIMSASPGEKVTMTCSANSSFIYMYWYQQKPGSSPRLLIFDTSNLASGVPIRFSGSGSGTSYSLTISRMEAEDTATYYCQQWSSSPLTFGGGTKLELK here.
Given back: 140

Would you kindly look at the next entry?
Asked: Supply recorded Percent Siglec-7 Surface Expression, Monocytes for anti-Siglec-7 antibody 4E3 (antibody, V domains shown, VL FR1 there holds a Z); also called S7-4E3; mAb S7-4E3) VH: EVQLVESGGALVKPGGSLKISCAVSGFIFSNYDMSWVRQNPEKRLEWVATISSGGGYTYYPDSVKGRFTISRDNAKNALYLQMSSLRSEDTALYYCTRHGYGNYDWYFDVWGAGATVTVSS VL: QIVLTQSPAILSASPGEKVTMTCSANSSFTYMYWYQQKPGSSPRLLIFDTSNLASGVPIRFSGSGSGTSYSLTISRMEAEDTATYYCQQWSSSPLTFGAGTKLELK here.
Given back: 15.1
